- target-desc: GST-Nv-NF-kB (Ser allele) (Nematostella vectensis, UniProt A7UNT2 2-411)
- Sequence: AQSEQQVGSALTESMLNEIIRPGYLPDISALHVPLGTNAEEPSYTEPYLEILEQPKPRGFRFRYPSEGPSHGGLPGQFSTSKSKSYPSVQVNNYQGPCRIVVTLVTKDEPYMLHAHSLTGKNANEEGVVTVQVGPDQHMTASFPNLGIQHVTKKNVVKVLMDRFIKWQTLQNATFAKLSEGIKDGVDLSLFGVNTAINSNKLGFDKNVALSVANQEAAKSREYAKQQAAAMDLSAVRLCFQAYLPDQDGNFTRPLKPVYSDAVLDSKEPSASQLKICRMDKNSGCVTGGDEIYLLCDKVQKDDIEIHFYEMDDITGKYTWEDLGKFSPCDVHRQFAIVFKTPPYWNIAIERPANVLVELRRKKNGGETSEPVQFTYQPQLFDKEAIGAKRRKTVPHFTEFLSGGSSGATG
- test-name: protein-binding microarray (PBM); PBM: ~300 nM protein, 6 mM HEPES pH 7.8, 80 mM KCl, 0.5 mM EDTA, 0.5 mM EGTA, 6% glycerol, 35 ng/ul poly-dIdC, 1% milk, 1 h, room temperature; Ap Aiptasia and Nv Nematostella (sea anemones) / Co Capsaspora / Aq Amphimedon (sponge) / Dm Drosophila / Hu human; RHD is the Rel homology domain; high values mean tight binding
- condition-summary: dsDNA, one strand shown
binding signal reference
Give the value, in units of z-score, as a plain number.

Use the examples below as a reference point.
>>> measured_result("CCGATTAACATCAAAATACCCCGTGATGTTAATCGGGTCTTGATTCGCTTGACGCTGCTG")
5.69
>>> measured_result("CCGATTAACATCAGATTTACCCCTGATGTTAATCGGGTCTTGATTCGCTTGACGCTGCTG")
3.18
>>> measured_result("CCGATTAACATCAGAAATCCCAATGATGTTAATCGGGTCTTGATTCGCTTGACGCTGCTG")
1.82
>>> measured_result("CCGATTAACATCAGCGATTCCCCTGATGTTAATCGGGTCTTGATTCGCTTGACGCTGCTG")
8.57
>>> measured_result("CCGATTAACATCAGAAAAGTACCTGATGTTAATCGGGTCTTGATTCGCTTGACGCTGCTG")
9.87
>>> measured_result("CCGATTAACATCAACAAATCCCCTGATGTTAATCGGGTCTTGATTCGCTTGACGCTGCTG")
10.9

Note to self: binding signal of `CCGATTAACATCAAACTACCCCCTGATGTTAATCGGGTCTTGATTCGCTTGACGCTGCTG` with GST-Nv-NF-kB (Ser allele) (Nematostella vectensis, UniProt A7UNT2 2-411) was 4.35

Note to self: binding signal of `CCGATTAACATCAACGATTCCCCTGATGTTAATCGGGTCTTGATTCGCTTGACGCTGCTG` with GST-Nv-NF-kB (Ser allele) (Nematostella vectensis, UniProt A7UNT2 2-411) was 8.86

Note to self: binding signal of `CCGATTAACATCAGTTTGGGAAATGATGTTAATCGGGTCTTGATTCGCTTGACGCTGCTG` with GST-Nv-NF-kB (Ser allele) (Nematostella vectensis, UniProt A7UNT2 2-411) was 2.26
